Listed below: Solubility values for each entry.
assay-explanation: Solubility in PBS
Type: physicochemical
measurement-parameters: Solubility (uM)
A number alone suffices; assume µM.

Example cases with answers are listed next.
INSERT INTO assay_data (molecule, u, quantitative_readout) VALUES
  ('CC[C@H](C)[C@@H]1NC(=O)[C@H](CC(=O)O)NC(=O)[C@]2(CC=CCCCC3(CCCC=CCCCCCC[C@@](C)(C(=O)N[C@@H](Cc4ccccc4)C(=O)N[C@@H](Cc4csc5ccccc45)C(=O)N[C@@H](CCC(N)=O)C(N)=O)NC(=O)[C@H](CCC(N)=O)NC(=O)[C@H](Cc4ccccc4)NC(=O)[C@H](Cc4ccccc4)NC(=O)[C@H](C)NC(=O)[C@H](CCC(=O)O)NC(=O)[C@H](CC(=O)O)NC3=O)NC1=O)CCCN2C(C)=O (stereo partly drawn) [I-660]', 'µM', 45),
  ('CC(=O)N1CCC[C@]12CC=CCCCC1(CCCC=CCCCOC(=O)N3CC[C@@](C(=O)N[C@@H](Cc4ccsc4)C(=O)N[C@@H](Cc4csc5ccccc45)C(=O)N[C@@H](CCC(N)=O)C(N)=O)(C3)NC(=O)[C@H](CC(N)=O)NC(=O)[C@H](Cc3ccccc3)NC(=O)[C@H](C)NC(=O)[C@H](C)NC(=O)[C@H](CC(=O)O)NC(=O)[C@H](CO)NC1=O)NC(=O)[C@H](CC(C)(C)C)NC(=O)[C@H](CC(=O)O)NC2=O (stereo partly drawn) [I-1208]', 'µM', 44);

Now look at this entry.
Reported Solubility for CC(=O)N1CCC[C@]12CC=CCCCC1(CCCC=CCCCOC(=O)N3CC[C@@](C(=O)N[C@@H](Cc4ccccc4Cl)C(=O)N[C@@H](Cc4csc5ccccc45)C(=O)N[C@H](CO)[C@@H](C)O)(C3)NC(=O)[C@H]([C@@H](C)O)NC(=O)[C@H](Cc3ccccc3)NC(=O)[C@H](C)NC(=O)[C@H](C)NC(=O)[C@H](CC(=O)O)NC(=O)[C@H](CC(=O)O)NC1=O)NC(=O)[C@H](CC1CCCCC1)NC(=O)[C@H](CC(=O)O)NC2=O (stereo partly drawn) [I-1312] was 46
